experimental.target: p53 Y220C (Homo sapiens, UniProt P04637, Y220C)
assay.procedure: Luciferase Reporter Assay (Luc), p53 response element, NClH1299 cells with inducible p53 Y220C
Type: cell-based
experimental.setup: AC50; luciferase reporter, NClH1299 inducible p53 Y220C, 6 hour; read-out: Luc P53 Y220C AC50
Recorded AC50 values for a group of compounds are listed next.

{"molecule.smiles": "CNC(=O)c1ccc(OC)c(NCC#Cc2nn3c(N[C@@H]4CNC[C@@H]4F)cccc3c2SC(F)(F)F)c1", "readout.type": "AC50", "endpoint.value": "< 750 nM"}
{"molecule.smiles": "CNC(=O)c1ccc(OC)c(NCC#Cc2nn3c(N[C@@H]4CCNC[C@@H]4F)cccc3c2SC(F)(F)F)c1", "readout.type": "AC50", "endpoint.value": "< 750 nM"}
{"molecule.smiles": "CNC(=O)c1ccc(NCC#Cc2nc3c(NC4COC4)cccn3c2SC(F)(F)F)c(OC)c1", "readout.type": "AC50", "endpoint.value": "750 to 1500 nM"}
{"molecule.smiles": "CNC(=O)c1ccc(OC)c(NCC#Cc2nc3c(N[C@@H]4CCN(CCOC)C[C@@H]4F)cccn3c2SC(F)(F)F)c1", "readout.type": "AC50", "endpoint.value": "< 750 nM"}
{"molecule.smiles": "CNC(=O)c1cnc(OC)c(NCC#Cc2cc3c(N[C@@H]4CCN(C)C[C@@H]4F)nccn3c2SC(F)F)c1", "readout.type": "AC50", "endpoint.value": "< 750 nM"}

Now for another entry.
Prompt: Provide AC50, system p53 Y220C (Homo sapiens, UniProt P04637, Y220C), entry COc1cc(C(=O)NCC2(O)CC2)ccc1NCC#Cc1cc2c(N[C@@H]3CCNC[C@@H]3F)cccn2c1SC(F)(F)F
Completion: < 750 nM

---

System: H1299 p53 Y220C
assay.procedure: Cell Proliferation Assay (CellTiter-Glo, CTG), H1299 p53 Y220C (NClH1299-inducible p53 Y220C)
Type: cell-based
experimental.setup: Homo sapiens, NCI-H1299, 120 h, CellTiter-Glo, H1299 p53 Y220C, 5 days
Counter-ions that a name gives are not always drawn.
Recorded IC50 values for a group of compounds are listed next.

Study these solved cases before continuing.
{"compound": "CNC(=O)c1ccc(NCC#Cc2nc3c(NC4CCN(C)CC4)cc(NC(=O)C(F)Cl)cn3c2CC(F)(F)F)c(OC)c1 (stereo not shown) [Example 43, formic acid salt]", "experimental.target": "H1299 p53 Y220C", "IC50": "> 3 µM"}
{"compound": "CNC(=O)c1c[nH]nc1NCC#Cc1nc2c(N[C@@H]3CCN(C)C[C@@H]3F)cccn2c1SC(F)(F)F [Example 198]", "experimental.target": "H1299 p53 Y220C", "IC50": "< 0.75 µM"}
{"compound": "CNC(=O)c1ccc(NCC#Cc2nc3c(N[C@@H]4CCc5nncn5C4)cccn3c2SC(F)(F)F)c(OC)c1 [Example 192]", "experimental.target": "H1299 p53 Y220C", "IC50": "> 3 µM"}
{"compound": "COc1cc(S(C)(=O)=O)ccc1NCC#Cc1nc2c(NC3CCN(C(C)=O)CC3)cccn2c1CC(F)(F)F [Example 10]", "experimental.target": "H1299 p53 Y220C", "IC50": "1.5 to 3 µM"}
{"compound": "CNC(=O)c1ccc(NCC#Cc2nc3c(N[C@@H]4CCn5nccc5C4)cccn3c2SC(F)(F)F)c(OC)c1 [Example 179]", "experimental.target": "H1299 p53 Y220C", "IC50": "1.5 to 3 µM"}
{"compound": "CNC(=O)c1ccc(OC)c(NCC#Cc2nc3c(N[C@@H]4CN(C)C[C@@H]4F)cccn3c2SC(F)(F)F)n1 [Example 171]", "experimental.target": "H1299 p53 Y220C", "IC50": "< 0.75 µM"}

Now for another entry.
Prompt: Please list IC50 recorded for the compound CNS(=O)(=O)c1ccc(OC)c(NCC#Cc2cc3c(N[C@@H]4CCN(C)C[C@@H]4F)cccn3c2SC(F)(F)F)c1 [Example 132]
Completion: < 0.75 µM

Where do these numbers come from? They come from patent US20260374766A1.
